Data credit: PubChem BioAssay (Tox21)

molecular target: Thyrotropin receptor (Homo sapiens) (UniProt P16473); assay: qHTS assay to identify small molecule antagonists of the thyroid stimulating hormone receptor (TSHR) signaling pathway (AID 1259385); settings: TSHR-HEK293 cAMP HTRF, TSH-stimulated antagonist mode; series mostly up to 92.4 µM; further: nearly all actives have a fitted effect of over 20% in size
Sequence (P16473 whole entry, looked up): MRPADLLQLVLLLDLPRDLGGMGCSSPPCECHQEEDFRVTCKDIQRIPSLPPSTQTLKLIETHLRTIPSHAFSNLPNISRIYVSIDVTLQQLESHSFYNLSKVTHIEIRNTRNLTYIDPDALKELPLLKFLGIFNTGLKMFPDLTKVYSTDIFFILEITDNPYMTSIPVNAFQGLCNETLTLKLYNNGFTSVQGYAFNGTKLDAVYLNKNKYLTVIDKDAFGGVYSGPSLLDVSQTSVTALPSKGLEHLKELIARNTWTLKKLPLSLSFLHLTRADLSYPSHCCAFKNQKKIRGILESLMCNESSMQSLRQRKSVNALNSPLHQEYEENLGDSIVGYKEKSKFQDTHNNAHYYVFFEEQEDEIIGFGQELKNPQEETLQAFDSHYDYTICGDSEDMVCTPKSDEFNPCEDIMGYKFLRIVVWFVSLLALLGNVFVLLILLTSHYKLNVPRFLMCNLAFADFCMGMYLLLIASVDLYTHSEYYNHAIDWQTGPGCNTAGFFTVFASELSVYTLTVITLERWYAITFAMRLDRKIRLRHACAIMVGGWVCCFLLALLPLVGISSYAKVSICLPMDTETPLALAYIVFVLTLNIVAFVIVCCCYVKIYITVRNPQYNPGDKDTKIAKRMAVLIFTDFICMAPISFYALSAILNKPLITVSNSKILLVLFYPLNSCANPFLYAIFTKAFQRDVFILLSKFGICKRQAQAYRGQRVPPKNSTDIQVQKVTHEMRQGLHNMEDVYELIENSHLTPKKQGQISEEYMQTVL
Records with an inconclusive call do not appear. Active and inactive are the calls of the source. The call rests on the fitted dose curve.
Outcome field: choose from active, inactive

Clc1ccc(-c2ccc(Cl)c(Cl)c2Cl)c(Cl)c1Cl
active
N#CC(Cl)Cl
inactive
CCOC(=O)OC1=C(c2cc(C)ccc2C)C(=O)NC12CCC(OC)CC2 (stereo not drawn)
inactive
Clc1ccc(CCC(Cn2ccnc2)Sc2c(Cl)cccc2Cl)cc1 (stereo not drawn)
inactive
CCCN(CC)CC1COC2(CCC(C(C)(C)C)CC2)O1 (stereo not drawn)
inactive
CCCCCCCCCBr
inactive
CNC(C)Cc1ccc2c(c1)OCO2 (stereo not drawn)
inactive

Continue with the molecule presented below.
Hey, what did the test say about CC(C)(C)c1cc([N+](=O)[O-])cc(C(C)(C)C)c1O ?
inactive

====

Assay: qHTS assay to identify small molecule antagonists of the retinoid acid receptor (RAR) signaling pathway - cell viability counter screen (AID 1159551); further: nearly all actives have a fitted effect of over 35% in size
Settings: C3RL4 cells viability, ATP luminescence (CellTiter-Glo), 6 h; series mostly up to 92.4 µM
Experimental: U.S. Tox21 Program National Center for Advancing Translational Sciences [NCATS] NIH Chemical Genomics Center [NCGC] U.S. Environmental Protection Agency [EPA] National Institutes of Environmental Health Sciences [NIEHS] National Toxicology Program [NTP] U.S. Food and Drug Administration [FDA] […] Also cytotoxicity was assessed by determining the viability of cells based on the quantitation of ATP. […]
Inconclusive results are not listed. The source made the active and inactive calls. Calls come from the whole dose curve; as a rule, active = well fitted cell-killing curve with a large enough effect in the repeat runs; inconclusive = weak or mixed curves, or effect the other way; inactive = flat fitted curve, though single readings scatter.
Bench note: report the call from y for active, n for inactive

Below are worked cases with known answers.
CCC(C)(C)C(=O)OC1=C(c2ccc(Cl)cc2Cl)C(=O)OC12CCCCC2
n
CCC[CH2][Sn]([CH2]CCC)([CH2]CCC)[O]C(=O)c1ccccc1
y

How did this test come out for Oc1c(Br)c(Br)c(Br)c(Br)c1Br ?
n

How was C1CCC2CCCCC2C1 (stereo not given) classified in this test?
n

// param item: N#CC(Cl)Cl ; yields the recorded call
n

Any idea what this test logged for Oc1cccc(-c2ccccc2)c1 ?
n

Kindly provide the recorded test outcome for the following compound: C[C@H]1O[C@@H](O[C@H]2[C@@H](O)C[C@H](O[C@H]3[C@@H](O)C[C@H](O[C@H]4CC[C@@]5(C)[C@H](CC[C@@H]6[C@@H]5CC[C@]5(C)[C@@H](C7=CC(=O)OC7)CC[C@]65O)C4)O[C@@H]3C)O[C@@H]2C)C[C@H](O)[C@@H]1O
n

Hi, do you know how N#Cc1ccccc1N came out in this test?
n

Kindly provide the recorded test outcome for the following compound: CC(Cl)CN(C)C (stereo not given)
n

Could you check what this test reported for CCS(=O)(=O)c1cccnc1S(=O)(=O)NC(=O)Nc1nc(OC)cc(OC)n1 ?
n

I would be grateful if you could indicate the recorded call for OC(c1ccc(Cl)cc1)(c1ccc(Cl)cc1)C(Cl)(Cl)Cl .
n

Outcome? Cc1cccc(OP(=O)(Oc2cccc(C)c2)Oc2cccc(C)c2)c1
n

Identify the outcome logged in this assay for the compound shown: c1ccc(OCC2CO2)cc1 (stereo not given)
n

Dear all, I need the recorded test outcome for COc1cc(C=O)cc2c1[C@H](COC(N)=O)[C@]1(OC(C)=O)ON2C[C@H]2[C@@H]1N2C(C)=O , thank you.
n

State the result this test recorded for FC(F)(F)c1cccc(C2=CCN(CCc3ccc4ccccc4c3)CC2)c1 .
n
